- Assay: chemical genetic growth profiling, strain panel (AID 1159580);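 also: tested at 20 µM; growth read once vehicle control cultures reached saturation at 30 °C; 1 = growth at the plate median or of vehicle wells; lower values mean less growth of the strain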
- Cond: S. cerevisiae deletion strains, growth OD, locus YEL003W, strain gim4
Out of some 5,500 compounds screened, about 2,000 (36%) were called active. About 18% were inconclusive and are not listed. Rule as the data show it: active = normalized growth mostly below about 0.91 (no sharp cut-off); inconclusive = no clear call, values can overlap the other calls; inactive = mostly above about 0.92. The list shows a part of the results.
Tick one outcome: active, inactive

Use the examples below as a reference point.
NCCSSCCN: inactive
NCC1CCC(C(=O)O)CC1 (centres undefined): inactive
NC(=O)C(c1ccccc1)(c1ccccc1)C1CCN(CCc2ccc3c(c2)CCO3)C1 (centres undefined): inactive
CCOC(=O)c1c(C)cc(O)c(C=O)c1O: active
NC(=O)c1ccc[n+]([C@@H]2O[C@H](COP(=O)([O-])OP(=O)(O)OC[C@H]3O[C@@H](n4cnc5c(N)ncnc54)[C@H](O)[C@@H]3O)[C@@H](O)[C@H]2O)c1: inactive
CC1CC2C3CCC4=CC(=O)C=C[C@]4(C)[C@@]3(F)[C@@H](O)C[C@]2(C)[C@@]1(O)C(=O)CO (some centres undefined): inactive
CC(=O)NC1SCCC1=O (centres undefined): inactive
CCCCCCCCCCCCCCCC[N+](C)(C)C: active
CN1CCC(=C2c3ccccc3CCc3sccc32)CC1: inactive
COc1cc(O)c(C(=O)/C=C/c2ccc(OC)c(O)c2)c(OC)c1: inactive

Record request — test call for CCN(CC)CCCC(C)Nc1ccnc2cc(Cl)ccc12 (centres undefined)
inactive

Record request — test call for CC(C[N+](C)(C)C)OC(N)=O (centres undefined)
inactive

Record request — test call for CC(=O)O[C@@H]1C[C@@]2(C)C(CC[C@@H]2C(C)=O)C2CCC3=CC(=O)CC[C@]3(C)C21 (some centres undefined)
inactive

Record request — test call for C[C@]12CCC(=O)C=C1CCC1C2CC[C@@]2(C)C1CC[C@@H]2O (some centres undefined)
inactive

====

Listed compounds paired with reported normalized growth
- Assay: chemical genetic growth profiling, strain panel (AID 1159580);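 also: tested at 20 µM; growth read once vehicle control cultures reached saturation at 30 °C; 1 = growth at the plate median or of vehicle wells; lower values mean less growth of the strain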
- Cond: S. cerevisiae deletion strains, growth OD, locus YPL240C, strain hsp82, stronger effect = lower value
The campaign covered roughly 5,500 compounds. About 2,000 (36%) were called active. About 18% were inconclusive and are not listed. This is one part of the list.
Just the number.

O=C(O)c1cc2ccccc2c(Cc2c(O)c(C(=O)O)cc3ccccc23)c1O: 0.976
O=C(O)c1c2ccccc2cc2ccccc12: 0.994
NCCSSCCN: 0.991
CO[C@H]1[C@H](O)[C@H](O[C@H]2CC[C@]3(C)C4CC[C@]5(C)C(C6=CC(=O)OC6)CC[C@]5(O)C4CC[C@@H]3C2)O[C@@H](C)[C@@H]1O (stereo partly specified): 0.998
O=C(O)c1cc2ccccc2[nH]1: 0.997

GET /values?readout=normalized growth&item= CC(=O)NC1SCCC1=O (stereo unspecified)
0.994

GET /values?readout=normalized growth&item= CC(N)CCCC(C)(C)O (stereo unspecified)
0.966

GET /values?readout=normalized growth&item= `CC(=O)OC(C)(C)[C@@H]1Cc2cc3ccc(=O)oc3cc2O1`
0.995

GET /values?readout=normalized growth&item= `CC(C)(O)[C@@H]1[C@H]2OC(=O)[C@@H]1[C@]1(O)C[C@H]3O[C@]34C(=O)O[C@H]2[C@]14C`
0.997

GET /values?readout=normalized growth&item= CC1CC2C3CC(F)C4=CC(=O)C=CC4(C)C3(F)C(O)CC2(C)C1(O)C(=O)CO (stereo unspecified)
1

GET /values?readout=normalized growth&item= `c1ccc(N=Nc2ccccc2)cc1`
0.986
